Target: recombinant human secreted phospholipase A2 (Homo sapiens, UniProt P14555)
Sequence (P14555 21-144): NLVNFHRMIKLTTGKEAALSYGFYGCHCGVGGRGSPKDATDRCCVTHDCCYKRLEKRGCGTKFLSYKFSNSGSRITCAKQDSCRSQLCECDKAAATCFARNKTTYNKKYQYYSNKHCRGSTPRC
Assay: chromogenic assay of recombinant human secreted phospholipase A2 inhibition
Conditions: diheptanoyl thio-PC substrate, pH 7.5, 40° C. for 30 minutes, absorbance at 405 nanometers, triplicate; read-out: Inhibition of human secreted PLA2 IC50 ± mean deviation
Protocol: The following chromogenic assay procedure was used to identify and evaluate inhibitors of recombinant human secreted phospholipase A2. The assay described herein has been adapted for high volume screening using 96 well microtiter plates. […] 5. Read absorbance of wells at 405 nanometers with an automatic plate reader. All compounds were tested in triplicate. […] Compounds initially found to be active were reassayed to confirm their activity and, if sufficiently active, IC50 values were determined. […]
Measurement Label: IC50 (µM)

Record excerpt, results attached:
CCc1c(NC(N)=O)c2c(OCC(=O)O)cccc2n1Cc1ccccc1 [Example 1]    0.049
CCc1c(NC(=O)C(N)=O)c2c(OCC(=O)O)cccc2n1Cc1ccccc1 [Example 6]    13
CCc1c(NC(=O)C(F)(F)F)c2c(OCC(=O)O)cccc2n1Cc1ccccc1 [Example 3]    51

[1] CCc1c(NC(N)=O)c2c(OCC(=O)O)cccc2n1Cc1ccccc1Br [Example 8]
[2] CCc1c(NC(C)=O)c2c(OCC(=O)O)cccc2n1Cc1ccccc1 [Example 2]
Which of the two gives a bigger number for IC50: 1 or 2 ? Reply briefly: the label of your chosen item. 2

----------
target: recombinant human secreted phospholipase A2 (Homo sapiens); experiment: chromogenic assay of recombinant human secreted phospholipase A2 inhibition; conditions: diheptanoyl thio-PC substrate, pH 7.5, 40° C. for 30 minutes, absorbance at 405 nanometers, triplicate; read-out: Inhibition of human secreted PLA2 IC50 ± mean deviation
pIC50: −log10 of the molar value.
Measurement Label: pIC50

Record excerpt, results attached:
CCc1c(NC(N)=O)c2c(OCC(=O)O)cccc2n1Cc1ccccc1-c1ccccc1    7.68
CCc1c(NC(N)=S)c2c(OCC(=O)O)cccc2n1Cc1ccccc1    5.17

[P] CCc1c(NC(=O)CBr)c2c(OCC(=O)O)cccc2n1Cc1ccccc1
[Q] CCc1c(NC(N)=O)c2c(OCC(=O)O)cccc2n1Cc1ccccc1-c1ccc(F)cc1
Which of the two gives a bigger number for pIC50: P or Q ? Reply briefly: the label of your chosen item. Q
